Numbers sourced from the OligoGym collection.

Kindly supply the reported target mRNA knockdown values for the records listed here.
Conditions: siRNA; further: test system not given here
HELM strings list units from the 5' end as sugar, base in round brackets, then linkage (d deoxyribose, r ribose, m 2'-O-methyl, p phosphodiester). Strings are as the collection lists them, not checked against the first reports. ss, as = sense and antisense strand; [fl2r] = 2'-fluoro

Any idea what target mRNA knockdown was measured for "RNA1{m(C)p.r(G)p.m(A)p.r(G)p.m(U)p.r(G)p.m(U)p.r(C)p.m(U)p.r(A)p.m(A)p.r(C)p.m(G)p.r(G)p.m(G)p.r(A)p.m(G)p.r(C)p.m(C)p.r(T)p.r(T)}|RNA2{r(G)p.r(G)p.r(C)p.r(U)p.r(C)p.r(C)p.r(C)p.r(G)p.r(U)p.r(U)p.r(A)p.r(G)p.r(A)p.r(C)p.r(A)p.r(C)p.r(U)p.r(C)p.r(G)p.r(T)p.r(T)}$$$RNA1{StrandType:ss}|RNA2{StrandType:as}$" ?
25%

Moving on to "RNA1{m(U)p.r(C)p.m(U)p.r(C)p.m(G)p.r(U)p.m(A)p.r(A)p.m(G)p.r(G)p.m(A)p.r(C)p.m(G)p.r(A)p.m(A)p.r(A)p.m(C)p.r(G)p.r(A)p.r(T)p.r(T)}|RNA2{r(U)p.r(C)p.r(G)p.r(U)p.r(U)p.r(U)p.r(C)p.r(G)p.r(U)p.r(C)p.r(C)p.r(U)p.r(U)p.r(A)p.r(C)p.r(G)p.r(A)p.r(G)p.r(A)p.r(T)p.r(T)}$$$RNA1{StrandType:ss}|RNA2{StrandType:as}$"
34%

Similarly, "RNA1{r(G)p.r(C)p.[fl2r](U)p.r(G)p.r(A)p.r(A)p.r(C)p.[fl2r](U)p.r(A)p.r(G)p.r(U)p.r(C)p.r(G)p.r(A)p.r(A)p.r(A)p.r(G)p.r(A)p.r(A)p.r(T)p.r(T)}|RNA2{r(U)p.r(U)p.r(C)p.r(U)p.r(U)p.r(U)p.r(C)p.r(G)p.r(A)p.r(C)p.[fl2r](U)p.r(A)p.r(G)p.r(U)p.r(U)p.[fl2r](C)p.r(A)p.r(G)p.r(C)p.r(T)p.r(T)}$$$RNA1{StrandType:ss}|RNA2{StrandType:as}$" ?
78%

* * *

Conditions: siRNA
HELM strings list units from the 5' end as sugar, base in round brackets, then linkage (d deoxyribose, r ribose, m 2'-O-methyl, p phosphodiester). Strings are as the collection lists them, not checked against the first reports. ss, as = sense and antisense strand; [lna] = locked nucleic acid (LNA)
So I've got a bunch of substances here, and I need their target mRNA knockdown values.
Form entry: enter the amount, then its unit.

Would you mind telling me what target mRNA knockdown value was observed for "RNA1{r(C)p.r(U)p.r(U)p.r(A)p.r(C)p.r(G)p.r(C)p.r(U)p.r(G)p.r(A)p.r(G)p.r(U)p.r(A)p.r(C)p.r(U)p.r(U)p.r(C)p.r(G)p.r(A)p.d(T)p.d(T)}|RNA2{[lna](T)p.r(C)p.r(G)p.r(A)p.r(A)p.r(G)p.r(U)p.r(A)p.r(C)p.r(U)p.r(C)p.r(A)p.r(G)p.r(C)p.r(G)p.r(U)p.r(A)p.r(A)p.r(G)p.[lna](T)p.[lna](T)}$$$RNA1{StrandType:ss}|RNA2{StrandType:as}$" ?
55%

Ok, now "RNA1{m(G)p.m(C)p.m(A)p.m(G)p.m(C)p.m(A)p.m(C)p.m(G)p.m(A)p.m(C)p.m(U)p.m(U)p.m(C)p.m(U)p.m(U)p.m(C)p.m(A)p.m(A)p.m(G)p.r(T)p.r(T)}|RNA2{m(C)p.m(U)p.m(U)p.m(G)p.m(A)p.m(A)p.m(G)p.m(A)p.m(A)p.m(G)p.m(U)p.m(C)p.m(G)p.m(U)p.m(G)p.m(C)p.m(U)p.m(G)p.m(C)p.r(T)p.r(T)}$$$RNA1{StrandType:ss}|RNA2{StrandType:as}$"
0%

* * *

Conditions: siRNA
HELM strings list units from the 5' end as sugar, base in round brackets, then linkage (d deoxyribose, r ribose, m 2'-O-methyl, p phosphodiester). Strings are as the collection lists them, not checked against the first reports. ss, as = sense and antisense strand; [lna] = locked nucleic acid (LNA)
propertyMeasured: target mRNA knockdown (%)
Write it as a number; the unit % goes unstated.

# target mRNA knockdown lookup, item "RNA1{r(C)p.r(U)p.r(U)p.r(A)p.r(C)p.r(G)p.r(C)p.r(U)p.r(G)p.r(A)p.r(G)p.r(U)p.r(A)p.r(C)p.r(U)p.r(U)p.r(C)p.r(G)p.r(A)p.d(T)p.d(T)}|RNA2{r(U)p.r(C)p.r(G)p.r(A)p.r(A)p.r(G)p.r(U)p.r(A)p.r(C)p.[lna](T)p.r(C)p.r(A)p.r(G)p.r(C)p.r(G)p.r(U)p.r(A)p.r(A)p.r(G)p.[lna](T)p.r(T)}$$$RNA1{StrandType:ss}|RNA2{StrandType:as}$"
93

Please do the same for "RNA1{r(G)p.r(A)p.m(U)p.r(A)p.r(C)p.r(U)p.r(U)p.r(C)p.r(U)p.r(G)p.r(G)p.r(U)p.r(U)p.r(C)p.r(C)p.r(C)p.r(U)p.r(C)p.r(C)p.r(T)p.r(T)}|RNA2{r(G)p.r(G)p.r(A)p.r(G)p.r(G)p.r(G)p.r(A)p.r(A)p.r(C)p.r(C)p.r(A)p.r(G)p.r(A)p.r(A)p.r(G)p.m(U)p.r(A)p.r(U)p.r(C)p.r(T)p.r(T)}$$$RNA1{StrandType:ss}|RNA2{StrandType:as}$" as well.
46

* * *

Assign target mRNA knockdown to each entry below.
Conditions: siRNA
HELM strings list units from the 5' end as sugar, base in round brackets, then linkage (d deoxyribose, r ribose, m 2'-O-methyl, p phosphodiester). Strings are as the collection lists them, not checked against the first reports. ss, as = sense and antisense strand; [hna] = hexitol nucleic acid; [s4r] = 4'-thioribose; [fl2r] = 2'-fluoro
Response body: numeric value in %, unit text excluded.

Need target mRNA knockdown of "RNA1{r(G)p.r(G)p.r(G)p.r(G)p.r(C)p.r(U)p.r(C)p.r(U)p.r(U)p.r(C)p.r(U)p.m(A)p.r(C)p.r(A)p.r(U)p.r(U)p.r(C)p.r(C)p.r(C)p.r(T)p.r(T)}|RNA2{r(G)p.r(G)p.r(G)p.r(A)p.r(A)p.r(U)p.r(G)p.m(U)p.r(A)p.r(G)p.r(A)p.r(A)p.r(G)p.r(A)p.r(G)p.r(C)p.r(C)p.r(C)p.r(C)p.r(T)p.r(T)}$$$RNA1{StrandType:ss}|RNA2{StrandType:as}$" , thanks.
72

Consider next the substance "RNA1{r(C)p.r(G)p.r(A)p.r(C)p.r(G)p.r(A)p.r(U)p.r(U)p.r(C)p.r(U)p.r(U)p.r(C)p.[fl2r](U)p.r(A)p.r(C)p.r(U)p.r(C)p.r(A)p.r(A)p.r(T)p.r(T)}|RNA2{r(U)p.r(U)p.r(G)p.r(A)p.r(G)p.[fl2r](U)p.r(A)p.r(G)p.r(A)p.r(A)p.r(G)p.r(A)p.r(A)p.r(U)p.r(C)p.r(G)p.r(U)p.r(C)p.r(G)p.r(T)p.r(T)}$$$RNA1{StrandType:ss}|RNA2{StrandType:as}$" in the same way.
67

And what about the substance "RNA1{r(G)p.r(G)p.r(A)p.r(A)p.r(G)p.r(A)p.r(A)p.r(G)p.r(A)p.[fl2r](U)p.r(A)p.r(G)p.r(A)p.r(G)p.[fl2r](C)p.r(A)p.r(U)p.r(C)p.r(C)p.r(T)p.r(T)}|RNA2{r(G)p.r(G)p.r(A)p.[fl2r](U)p.r(G)p.r(C)p.r(U)p.r(C)p.[fl2r](U)p.r(A)p.r(U)p.r(C)p.r(U)p.r(U)p.r(C)p.r(U)p.r(U)p.r(C)p.r(C)p.r(T)p.r(T)}$$$RNA1{StrandType:ss}|RNA2{StrandType:as}$" ?
37

Same thing, different substance: "RNA1{r(C)p.r(G)p.r(U)p.r(A)p.r(C)p.r(G)p.r(C)p.r(G)p.r(G)p.r(A)p.r(A)p.r(U)p.r(A)p.r(C)p.r(U)p.r(U)p.r(C)p.r(G)p.r(A)p.r(T)p.r(T)}|RNA2{[s4r](U)p.[s4r](C)p.r(G)p.r(A)p.r(A)p.r(G)p.[s4r](U)p.r(A)p.[s4r](U)p.[s4r](U)p.[s4r](C)p.[s4r](C)p.r(G)p.[s4r](C)p.r(G)p.[s4r](U)p.r(A)p.[s4r](C)p.r(G)p.r(T)p.r(T)}$$$RNA1{StrandType:ss}|RNA2{StrandType:as}$"
27.5

Query "RNA1{[hna](G)p.[hna](A)p.[hna](C)p.r(G)p.r(U)p.r(A)p.r(A)p.r(A)p.r(C)p.r(G)p.r(G)p.r(C)p.r(C)p.r(A)p.r(C)p.r(A)p.r(A)p.[hna](G)p.[hna](U)p.[hna](U)p.d(T)}|RNA2{r(A)p.r(C)p.r(U)p.r(U)p.r(G)p.r(U)p.r(G)p.r(G)p.r(C)p.r(C)p.r(G)p.r(U)p.r(U)p.r(U)p.r(A)p.r(C)p.r(G)p.[hna](U)p.[hna](C)p.[hna](G)p.d(T)}$$$RNA1{StrandType:ss}|RNA2{StrandType:as}$" next
84.6
